// values below are reported IC50
test.target: Vascular endothelial growth factor receptor 2 (Homo sapiens)
Sequence (P35968 whole entry): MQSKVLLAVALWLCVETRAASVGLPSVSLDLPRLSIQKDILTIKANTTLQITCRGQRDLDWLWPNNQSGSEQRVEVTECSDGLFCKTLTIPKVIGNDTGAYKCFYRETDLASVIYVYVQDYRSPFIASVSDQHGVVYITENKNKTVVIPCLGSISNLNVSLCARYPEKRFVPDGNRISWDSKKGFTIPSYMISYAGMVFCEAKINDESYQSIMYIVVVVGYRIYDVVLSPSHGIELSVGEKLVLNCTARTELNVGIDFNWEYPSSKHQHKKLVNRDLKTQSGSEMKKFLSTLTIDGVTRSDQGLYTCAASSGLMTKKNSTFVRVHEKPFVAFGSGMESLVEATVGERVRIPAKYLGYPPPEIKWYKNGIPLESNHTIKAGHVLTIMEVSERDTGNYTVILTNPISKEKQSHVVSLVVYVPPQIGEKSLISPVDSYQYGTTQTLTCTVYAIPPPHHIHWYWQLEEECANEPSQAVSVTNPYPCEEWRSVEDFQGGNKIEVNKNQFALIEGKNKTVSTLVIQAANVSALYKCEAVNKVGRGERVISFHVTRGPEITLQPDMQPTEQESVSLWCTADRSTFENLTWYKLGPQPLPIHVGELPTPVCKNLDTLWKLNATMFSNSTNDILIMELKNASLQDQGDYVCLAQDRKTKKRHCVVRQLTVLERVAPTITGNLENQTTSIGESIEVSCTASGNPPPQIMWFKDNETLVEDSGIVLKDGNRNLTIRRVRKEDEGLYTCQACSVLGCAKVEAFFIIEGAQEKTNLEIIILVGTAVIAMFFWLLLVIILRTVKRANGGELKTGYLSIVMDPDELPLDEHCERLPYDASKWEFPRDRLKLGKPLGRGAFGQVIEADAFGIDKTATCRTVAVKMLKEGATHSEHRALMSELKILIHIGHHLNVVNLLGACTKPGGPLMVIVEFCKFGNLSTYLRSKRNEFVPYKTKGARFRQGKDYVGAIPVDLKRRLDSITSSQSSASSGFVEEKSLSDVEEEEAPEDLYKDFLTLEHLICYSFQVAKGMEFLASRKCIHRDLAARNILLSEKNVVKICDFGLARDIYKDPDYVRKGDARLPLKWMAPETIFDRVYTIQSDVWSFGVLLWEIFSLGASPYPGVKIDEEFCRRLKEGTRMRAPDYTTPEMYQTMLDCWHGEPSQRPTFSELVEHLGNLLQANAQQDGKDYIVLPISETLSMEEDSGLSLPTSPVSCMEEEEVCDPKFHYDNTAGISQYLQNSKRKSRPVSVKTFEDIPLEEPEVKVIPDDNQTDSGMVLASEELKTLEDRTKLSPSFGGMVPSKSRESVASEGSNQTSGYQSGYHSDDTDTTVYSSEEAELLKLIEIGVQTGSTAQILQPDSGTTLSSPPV
Lab book: enter the figure in µM, no units written.

Observe how each entry below is paired with its result.
smiles.data	test.target	IC50, µM
Cc1cc(CO)[nH]c1/C=C1\C(=O)Nc2ccccc21	Vascular endothelial growth factor receptor 2 (Homo sapiens)	0.32
CCOC(=O)c1cc(C)c(/C=C2\C(=O)Nc3ccccc32)[nH]1	Vascular endothelial growth factor receptor 2 (Homo sapiens)	8
CC(=O)ON1C(=O)/C(=C\c2[nH]c(C)cc2C)c2ccccc21	Vascular endothelial growth factor receptor 2 (Homo sapiens)	0.4

Switching to the query record.
Entry Cc1cc(C)c(/C=C2\C(=O)N(O)c3ccccc32)[nH]1 , system Vascular endothelial growth factor receptor 2 (Homo sapiens): what IC50 was measured?
0.5
